test system: Danio rerio larvae (5 dpf); experiment: difference in combined optomotor response to red, green and blue moving lines vs DMSO (percentage points); higher = stronger optomotor response than DMSO; conditions: 10 µM; exposure time 6 h
Counter-ions that a name gives are not always drawn.
Listing of recorded difference by entry.
Answer using only a numeral; do not append any unit.

| compound | difference |
| --- | --- |
| CCN(CC)CC#CCOC(=O)C(O)(c1ccccc1)C1CCCCC1 (stereo not given) [Oxybutynin (hydrochloride)] | -10.5 |
| CCCCN1C[C@H](O)[C@@H](O)[C@H](O)[C@H]1CO [N-Butyldeoxynojirimycin (hydrochloride)] | 4.55 |
| Clc1ccc(COC(Cn2ccnc2)c2ccc(Cl)cc2Cl)cc1 (stereo not given) [Econazole (nitrate)] | -16.9 |
| CCc1nn(CCCN2CCN(c3cccc(Cl)c3)CC2)c(=O)n1CCOc1ccccc1 [Nefazodone (hydrochloride)] | -10.9 |
| Cc1nccn1CC1CCc2c(c3ccccc3n2C)C1=O (stereo not given) [Ondansetron (hydrochloride hydrate)] | 4.66 |
| Nc1nc(CC(=O)Nc2ccc(CCNC[C@H](O)c3ccccc3)cc2)cs1 | 3.08 |
| CC(C)[C@H](N)C(=O)OCC(CO)OCn1cnc2c(=O)nc(N)[nH]c21 (stereo not given in full) [Valganciclovir (hydrochloride)] | 3.33 |
| CC(=O)Oc1ccccc1C(=O)O | 2.52 |

# query: difference of entry Nc1nc(F)nc2c1ncn2[C@@H]1O[C@H](COP(=O)(O)O)[C@@H](O)[C@@H]1O [Fludarabine Phosphate]
6.27

# query: difference of entry CN(C)CCc1c[nH]c2ccc(C[C@H]3COC(=O)N3)cc12
10.3

# query: difference of entry C[C@@H]1C[C@H]2[C@@H]3CCC4=CC(=O)C=C[C@]4(C)[C@@]3(F)[C@@H](O)C[C@]2(C)[C@@]1(O)C(=O)CO
3.79

# query: difference of entry Clc1ccc2nsnc2c1NC1=NCCN1 [Tizanidine (hydrochloride)]
-0.822

# query: difference of entry CO/N=C1\C[C@]2(C[C@@H]3C[C@@H](C/C=C(\C)C[C@@H](C)/C=C/C=C4\CO[C@@H]5[C@H](O)C(C)=C[C@@H](C(=O)O3)[C@]45O)O2)O[C@H](/C(C)=C/C(C)C)[C@H]1C
-17

# query: difference of entry C=C(CC)C(=O)c1ccc(OCC(=O)O)c(Cl)c1Cl
6.1

# query: difference of entry CC(=O)O[C@@]12CO[C@@H]1C[C@H](O)[C@@]1(C)C(=O)[C@H](O)C3=C(C)[C@@H](OC(=O)[C@H](O)[C@@H](NC(=O)OC(C)(C)C)c4ccccc4)C[C@@](O)([C@@H](OC(=O)c4ccccc4)[C@H]21)C3(C)C [Docetaxel (hydrate)]
-1.11

---

system: Danio rerio larvae (5 dpf); test: difference in habituation to acoustic stimuli vs DMSO (percentage points); higher = more habituation than DMSO; conditions: 10 µM; exposure time 6 h
Given measured difference in habituation to acoustic stimuli, output MET if it is greater than or equal to 0.9 and NOT MET if not.

API: above_or_equal(metric=difference in habituation to acoustic stimuli, cutoff=0.9) for item Cc1cnc(C(=O)NCCc2ccc(S(=O)(=O)NC(=O)NC3CCCCC3)cc2)cn1 [Glipizide]
MET

---

test system: Danio rerio larvae (5 dpf); assay: difference in activity during first hour vs DMSO (percentage points); higher = more activity than DMSO; conditions: 10 µM; exposure time 6 h
Where a name gives a salt, the structure may show the parent alone.
Given measured difference in activity during first hour, output t if it is greater than or equal to 10 and f if not.

API: above_or_equal(metric=difference in activity during first hour, cutoff=10) for item CO/N=C(\C(=O)N[C@@H]1C(=O)N2C(C(=O)O)=C(CSc3nc(=O)c(O)nn3C)CS[C@H]12)c1csc(N)n1 [Ceftriaxone (sodium salt hydrate)]
t

API: above_or_equal(metric=difference in activity during first hour, cutoff=10) for item CCCc1cc(=O)[nH]c(=S)[nH]1
f

API: above_or_equal(metric=difference in activity during first hour, cutoff=10) for item O=C(O)CCCc1ccccc1 [Sodium 4-Phenylbutyrate]
f

API: above_or_equal(metric=difference in activity during first hour, cutoff=10) for item COC1=CC(=O)C[C@@H](C)[C@]12Oc1c(Cl)c(OC)cc(OC)c1C2=O
t

// data source = the supplement of paper PMC10515830
